B1: TPR 5TU (parent)
chain: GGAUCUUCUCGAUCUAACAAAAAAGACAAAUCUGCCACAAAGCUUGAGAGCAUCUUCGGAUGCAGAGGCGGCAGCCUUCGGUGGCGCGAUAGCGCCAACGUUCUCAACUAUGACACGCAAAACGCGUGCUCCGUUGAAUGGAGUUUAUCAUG

Variants of: B1
measurement description: polymerase ribozyme fitness, log enrichment relative to wild type (log ratio); higher = more active; in vitro selection for triplet polymerase activity
Variants at the floor of the assay were thinned out.

- mutation label: "A20C U61G G112C"
  comparison symbol: "≤"
  polymerase ribozyme fitness (log ratio): -4.2
- mutation label: "C27U G68C A89G C93A A110G G136C"
  comparison symbol: "≤"
  polymerase ribozyme fitness (log ratio): -4.2
- mutation label: "A91C C95U C103G C116G"
  comparison symbol: "≤"
  polymerase ribozyme fitness (log ratio): -4.2
- mutation label: "U61A C118A"
  comparison symbol: "="
  polymerase ribozyme fitness (log ratio): -2
- mutation label: "A40C U55A U104C"
  comparison symbol: "="
  polymerase ribozyme fitness (log ratio): -0.475
- mutation label: "A30C C72G G86U A106G U144C C149G"
  comparison symbol: "≤"
  polymerase ribozyme fitness (log ratio): -4.2
- mutation label: "A40G U45A A47C C99U A115C G124C"
  comparison symbol: "≤"
  polymerase ribozyme fitness (log ratio): -4.2
- mutation label: "U4C A22C G48U C93G A122C"
  comparison symbol: "="
  polymerase ribozyme fitness (log ratio): -3.98
- mutation label: "C54U C75G U78C C79A G80U"
  comparison symbol: "≤"
  polymerase ribozyme fitness (log ratio): -4.2
- mutation label: "G50C A52C G58C"
  comparison symbol: "≤"
  polymerase ribozyme fitness (log ratio): -4.2
- mutation label: "A22C C85G U109A"
  comparison symbol: "="
  polymerase ribozyme fitness (log ratio): -3.43
- mutation label: "A24C G68U C75G C76G A110G A121U"
  comparison symbol: "≤"
  polymerase ribozyme fitness (log ratio): -4.2
- mutation label: "C10U U13G U45A G46A G58C C63U G141U"
  comparison symbol: "≤"
  polymerase ribozyme fitness (log ratio): -4.2
- mutation label: "G50U G86C A120C"
  comparison symbol: "="
  polymerase ribozyme fitness (log ratio): -3.03
- mutation label: "C10U G58U G83A A89C A110G U148A"
  comparison symbol: "≤"
  polymerase ribozyme fitness (log ratio): -4.2
- mutation label: "G50U A52G C75A C85A G92C G126U G128A A147U"
  comparison symbol: "≤"
  polymerase ribozyme fitness (log ratio): -4.2
- mutation label: "C8G G94A C103U G128C U134A"
  comparison symbol: "≤"
  polymerase ribozyme fitness (log ratio): -4.2
- mutation label: "A52C A64G C85U U145G"
  comparison symbol: "≤"
  polymerase ribozyme fitness (log ratio): -4.2
- mutation label: "G83A G86U C118U"
  comparison symbol: "="
  polymerase ribozyme fitness (log ratio): -3.81
- mutation label: "U9G A23U G34C C57A C93A"
  comparison symbol: "≤"
  polymerase ribozyme fitness (log ratio): -4.2
- mutation label: "G81A C93G"
  comparison symbol: "="
  polymerase ribozyme fitness (log ratio): -3.86
- mutation label: "A23G C85A A98C"
  comparison symbol: "="
  polymerase ribozyme fitness (log ratio): -3.17
- mutation label: "C93U U134A"
  comparison symbol: "="
  polymerase ribozyme fitness (log ratio): -4.01
- mutation label: "A28U G92A G140C"
  comparison symbol: "="
  polymerase ribozyme fitness (log ratio): -3.61
- mutation label: "C14G A137U"
  comparison symbol: "≤"
  polymerase ribozyme fitness (log ratio): -4.2
- mutation label: "C36U G59A U82G A97U"
  comparison symbol: "="
  polymerase ribozyme fitness (log ratio): -1.3
- mutation label: "A121U C125U"
  comparison symbol: "="
  polymerase ribozyme fitness (log ratio): -0.154
- mutation label: "A19G G42U G50U A52U C75U G88U G92C G143A"
  comparison symbol: "≤"
  polymerase ribozyme fitness (log ratio): -4.2
- mutation label: "A23G C72U"
  comparison symbol: "="
  polymerase ribozyme fitness (log ratio): -3.74
- mutation label: "A49G C51G"
  comparison symbol: "="
  polymerase ribozyme fitness (log ratio): -2.66
- mutation label: "U56C U109A U127C"
  comparison symbol: "="
  polymerase ribozyme fitness (log ratio): -3.65
- mutation label: "A19G C38U G50A G86A C105A C116A A121U G141C"
  comparison symbol: "≤"
  polymerase ribozyme fitness (log ratio): -4.2
- mutation label: "A17G C36G C79A C95U A97U G117U G126U"
  comparison symbol: "="
  polymerase ribozyme fitness (log ratio): -4.08
- mutation label: "A3G C93A C108U C125G A142G U145G U146A"
  comparison symbol: "≤"
  polymerase ribozyme fitness (log ratio): -4.2
- mutation label: "A24U A28U U33A A41C U55G C96U"
  comparison symbol: "≤"
  polymerase ribozyme fitness (log ratio): -4.2
- mutation label: "C35U G88A"
  comparison symbol: "="
  polymerase ribozyme fitness (log ratio): -4.1
- mutation label: "U15C A17U A60G G62C A91U"
  comparison symbol: "≤"
  polymerase ribozyme fitness (log ratio): -4.2
- mutation label: "G68A A138G"
  comparison symbol: "≤"
  polymerase ribozyme fitness (log ratio): -4.2
- mutation label: "C57A C87A C116G U127A C129U A137G C149U"
  comparison symbol: "≤"
  polymerase ribozyme fitness (log ratio): -4.2
- mutation label: "A12C A23C C54A G81U G92C C99A"
  comparison symbol: "≤"
  polymerase ribozyme fitness (log ratio): -4.2
- mutation label: "U6G C63U G83U A98U A122U"
  comparison symbol: "="
  polymerase ribozyme fitness (log ratio): -0.875
- mutation label: "C5G A37U G141U"
  comparison symbol: "="
  polymerase ribozyme fitness (log ratio): -1.94
- mutation label: "U4G C27U A97U"
  comparison symbol: "="
  polymerase ribozyme fitness (log ratio): -2.22
- mutation label: "A19U A21U C85G"
  comparison symbol: "="
  polymerase ribozyme fitness (log ratio): -2.46
- mutation label: "A29G C35G U56G G68A G81A C99A C114A G143C"
  comparison symbol: "≤"
  polymerase ribozyme fitness (log ratio): -4.2
- mutation label: "A39G U53A C87U A115C"
  comparison symbol: "="
  polymerase ribozyme fitness (log ratio): -3.83
